The reported numbers originate from the CheMixHub viscosity set.

Each entry below carries its reported viscosity.
assay-remarks: xn = mol fraction of the nth substance listed
assay-context: 298.15 K; 101 kPa; x2 = 0.6
± gives the uncertainty stated by the source.
Mention the unit after the number when you answer.

Previously resolved entries follow.
{"columns": ["compound", "viscosity"],
 "data": [
  ["CCCCCCCCCCO + CCO", "4.09 ± 0.038 mPa·s"],
  ["CCCCCCCCCCO + CCCO", "5.052 ± 0.044 mPa·s"],
  ["CCCCCCCCCCO + CO", "3.448 ± 0.031 mPa·s"]
]}

// next entry
Prompt: I have this compound here, CCCCCCCCCCO + CCCCO , and I need its recorded viscosity.
Response: 5.243 ± 0.051 mPa·s

----------
assay-context: 293.15 K; 100 kPa
Each entry below carries its reported viscosity.
The answer is to be given in mPa·s; state only the numeric part.

{"columns": ["structure", "viscosity / mPa·s"],
 "data": [
  ["CCn1cc[n+](C)c1.F[B-](F)(F)F", 50.54]
]}

Prompt: I have this compound here, OCCN(CCO)CCO , and I need its recorded viscosity.
Response: 935

Prompt: Moving on to the next compound: CCCCCCCCCCO
Response: 14.27

Prompt: Moving on to the next compound: CN1CCN(C)C1=O
Response: 2.139

----------
assay-context: 298.15 K; 101.33 kPa
measured-parameter: viscosity (mPa·s)
The answer is to be given in mPa·s; state only the numeric part.

Previously resolved entries follow.
{"columns": ["structure", "readout-unit", "viscosity"],
 "data": [
  ["CCCCCCCCCCO", "mPa·s", 11.57],
  ["Cc1ccccc1C", "mPa·s", 0.7587],
  ["COC=O", "mPa·s", 0.328]
]}

// next entry
Prompt: I have this compound here, CCCCCCCCCCCC , and I need its recorded viscosity.
Response: 1.324

----------
assay-remarks: xn = mol fraction of the nth substance listed
assay-context: 318.15 K; 101 kPa; x2 = 0.2
# binarize viscosity: threshold 4 mPa·s inclusive, high side TRUE, low side FALSE

{"columns": ["compound", "classification"],
 "data": [
  ["Cc1ccccc1C + CCCCCCO", "FALSE"],
  ["CCCCCCCCCCO + CCCO", "TRUE"]
]}

Please turn your attention to the following entry.
Prompt: Quick check, viscosity >= 4 mPa·s? CCCCCCCCCCO + CCO
Response: FALSE

----------
Each entry below carries its reported viscosity.
assay-context: 313.15 K; 100 kPa
The answer is to be given in mPa·s; state only the numeric part.

Previously resolved entries follow.
{"columns": ["structure", "readout-unit", "viscosity"],
 "data": [
  ["CCOC(=O)OCC", "mPa·s", 0.622],
  ["Cc1ccc(Cl)cc1", "mPa·s", 0.682],
  ["CCCCCCCCCCO", "mPa·s", 6.846]
]}

Prompt: I have this compound here, CN1CCN(C)C1=O , and I need its recorded viscosity.
Response: 1.491

Prompt: Moving on to the next compound: CCn1cc[n+](C)c1.F[B-](F)(F)F
Response: 24.83

Prompt: Moving on to the next compound: OCCOCCOCCO
Response: 19.8

----------
Each entry below carries its reported viscosity.
assay-remarks: xn = mol fraction of the nth substance listed
assay-context: 318.15 K; 101 kPa; x2 = 0.4
The answer is to be given in mPa·s; state only the numeric part.

Previously resolved entries follow.
{"columns": ["compound", "measured-parameter", "reported-measurement"],
 "data": [
  ["Cc1ccccc1C + c1ccccc1", "viscosity", 0.574],
  ["CCCCCCCCCCO + CCCCO", "viscosity", 3.678],
  ["CCCCCCCCCCO + CCO", "viscosity", 3.073],
  ["CCCCCCCCCCO + CCCO", "viscosity", 3.741]
]}

// next entry
Prompt: I have this compound here, CCCCCCCCCCO + CO , and I need its recorded viscosity.
Response: 3.285

----------
assay-remarks: xn = mol fraction of the nth substance listed
assay-context: 308.15 K; 101 kPa; x2 = 0.05
Each entry below carries its reported viscosity.
The answer is to be given in mPa·s; state only the numeric part.

{"columns": ["compound", "viscosity (mPa·s)"],
 "data": [
  ["CCCCCCCCCCO + CCO", 7.3]
]}

Prompt: I have this compound here, CCCCCCCCCCO + CCCO , and I need its recorded viscosity.
Response: 7.206

Prompt: Moving on to the next compound: CCCCCCCCCCO + CO
Response: 7.137

Prompt: Moving on to the next compound: CCCCCCCCCCO + CCCCO
Response: 7.143

----------
assay-remarks: xn = mol fraction of the nth substance listed
assay-context: 318.15 K; 101 kPa; x2 = 0.8
measured-parameter: viscosity (mPa·s)
The answer is to be given in mPa·s; state only the numeric part.

Previously resolved entries follow.
{"columns": ["molecule", "readout-unit", "viscosity"],
 "data": [
  ["CCCCCCCCCCO + CO", "mPa·s", 1.174],
  ["CCCCCCCCCCO + CCCCO", "mPa·s", 2.124],
  ["CCCCCCCCCCO + CCO", "mPa·s", 1.558]
]}

// next entry
Prompt: I have this molecule here, CCCCCCCCCCO + CCCO , and I need its recorded viscosity.
Response: 2.866

----------
assay-remarks: xn = mol fraction of the nth substance listed
assay-context: 308.15 K; 101 kPa; x2 = 0.8
# binarize viscosity: threshold 1 mPa·s inclusive, high side y, low side n

Prompt: Quick check, viscosity >= 1 mPa·s? CCCCCCCCCCO + CO
Response: y

Prompt: Moving on to the next compound: CCCCCCCCCCO + CCCCO
Response: y

Prompt: Moving on to the next compound: CCCCCCCCCCO + CCCO
Response: y

Prompt: Moving on to the next compound: Cc1ccccc1C + C1COCCO1
Response: n

Prompt: Moving on to the next compound: CCCCCCCCCCO + CCO
Response: y

----------
assay-remarks: xn = mol fraction of the nth substance listed
assay-context: 308.15 K; 101 kPa; x2 = 0.9
Each entry below carries its reported viscosity.
The answer is to be given in mPa·s; state only the numeric part.

Prompt: I have this molecule here, Cc1ccccc1C + C1COCCO1 , and I need its recorded viscosity.
Response: 0.922

Prompt: Moving on to the next molecule: CCCCCCCCCCO + CO
Response: 0.886

Prompt: Moving on to the next molecule: CCCCCCCCCCO + CCCCO
Response: 2.364

Prompt: Moving on to the next molecule: CCCCCCCCCCO + CCCO
Response: 2.839

Prompt: Moving on to the next molecule: CCCCCCCCCCO + CCO
Response: 1.402

----------
assay-remarks: xn = mol fraction of the nth substance listed
assay-context: 298.15 K; 101 kPa; x2 = 0.65
Each entry below carries its reported viscosity.
The answer is to be given in mPa·s; state only the numeric part.

Prompt: I have this compound here, CCCCCCCCCCO + CCCO , and I need its recorded viscosity.
Response: 4.589

Prompt: Moving on to the next compound: CCCCCCCCCCO + CCO
Response: 3.606

Prompt: Moving on to the next compound: CCCCCCCCCCO + CCCCO
Response: 4.843

Prompt: Moving on to the next compound: CCCCCCCCCCO + CO
Response: 2.947

----------
Each entry below carries its reported viscosity.
assay-remarks: xn = mol fraction of the nth substance listed
assay-context: 308.15 K; 101 kPa; x2 = 0.3
The answer is to be given in mPa·s; state only the numeric part.

{"columns": ["molecule", "reported-measurement"],
 "data": [
  ["CCCCCCCCCCO + CCCO", 5.831]
]}

// next entry
Prompt: I have this molecule here, Cc1ccccc1C + C1COCCO1 , and I need its recorded viscosity.
Response: 0.723

----------
Each entry below carries its reported viscosity.
assay-remarks: xn = mol fraction of the nth substance listed
assay-context: 298.15 K; 101 kPa; x2 = 0.1
The answer is to be given in mPa·s; state only the numeric part.

Previously resolved entries follow.
{"columns": ["compound", "reported-measurement"],
 "data": [
  ["CCCCCCCCCCO + CCO", 9.841],
  ["COCCOCCO + CCOC(C)(C)C", 2.906],
  ["CCCCCCCCCCO + CO", 9.75],
  ["CCCCCCCCCCO + CCCO", 10.05]
]}

// next entry
Prompt: I have this compound here, CCCCCCCCCCO + CCCCO , and I need its recorded viscosity.
Response: 10.2

----------
assay-remarks: xn = mol fraction of the nth substance listed
assay-context: 308.15 K; 101 kPa; x2 = 0.35
± gives the uncertainty stated by the source.
measured-parameter: viscosity
Mention the unit after the number when you answer.

Previously resolved entries follow.
{"columns": ["compound", "measured-parameter", "reported-measurement"],
 "data": [
  ["CCCCCCCCCCO + CCO", "viscosity", "4.919 ± 0.05 mPa·s"],
  ["CCCCCCCCCCO + CO", "viscosity", "4.699 ± 0.044 mPa·s"],
  ["CCCCCCCCCCO + CCCO", "viscosity", "5.572 ± 0.052 mPa·s"]
]}

Prompt: I have this compound here, CCCCCCCCCCO + CCCCO , and I need its recorded viscosity.
Response: 5.292 ± 0.052 mPa·s
